Measured inhibition by item
Assay: inhibitors of E-selectin induction by TNFa, primary screen, imaging, HUVEC, immunofluorescence, MLSMR starter and 10KST1 sets (AID 487);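 further: signal is fraction of cell area covered by stained E-selectin grains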
Details: HUVEC TNFalpha-induced E-selectin immunofluorescence imaging, at 2 µM; active compounds read high

COMPOUND | inhibition / %
Cc1nc2sccn2c(=O)c1CCN1CCC(=C(c2ccc(F)cc2)c2ccc(F)cc2)CC1 | -80.7
COC(=O)c1ccccc1NC(=O)CSc1nnc(-c2ccncc2)o1 | -75.9
c1ccc2c(c1)[nH]c1c(N3CCC4(CC3)OCCO4)ncnc12 | -72.3
CC(C)(C)n1nnc(CCc2nnn(C(C)(C)C)n2)n1 | -32.2
CC1=CC(c2ccccc2)n2nc(N3C(=O)C4CC=CCC4C3=O)nc2N1 (configuration not stated) | -63.7
CCc1cccc(CC)c1N(COC)C(=O)Cn1nnc2ccccc21 | -230
CC(=O)c1c(C(C)=O)c(C)n(NC(=O)c2ccncc2)c1C | -2.4
CN1CCN2c3ccccc3Cc3ccccc3C2C1 (configuration not stated) | -52
CCc1c(C)c(C#N)c2nc3ccccc3n2c1-n1nc(C)cc1C | -51.2
CCCOc1ccc(N2C(=O)CC(N(CCC)C(=O)CCC(=O)O)C2=O)cc1 (configuration not stated) | -161
O=C(NCCO)c1cccc2c1C(=O)c1ccccc1-2 | -95.8
COc1cc(C(=O)Nc2nccs2)cc(OC)c1OC | 53.4
CN=C1c2cc3c(Br)c(OC)ccc3n2CCN1C | -28.8
Fc1ccc(-c2cnc[nH]2)cc1 | -88.1
O=C1c2ccccc2C(=O)N1CCN1CCc2ccccc21 | -131
CCN(CC)CCNC(=O)c1ccc(NC(C)=O)cc1 | 15.6
COc1cccc(Cn2c(OCC3CCCO3)nc3c2c(=O)n(C)c(=O)n3C)c1 (configuration not stated) | -83.9
CN(C)CCCN1C(=O)C(O)=C(C(=O)c2cc3ccccc3o2)C1c1ccccc1 (configuration not stated) | -61.8
O=c1oc2cc(O)ccc2c2oc3cc(O)ccc3c12 | -22
Cc1cc(=O)oc(C)c1C(=O)NCCNC(=O)c1c(C)cc(=O)oc1C | -127
CCOc1ccccc1N1CCN(c2nc3ccccc3nc2C(C#N)C(=O)OC)CC1 (configuration not stated) | -43.1
Nc1nc2ccc(OC(F)(F)F)cc2s1 | -27.8
CN1CCN(C(=O)CSc2nc(-c3cccs3)ccc2C#N)CC1 | 21.9
COC(=O)C1=C(C)N=C2SC(C)C(=O)N2C1c1ccc(C(=O)OC)cc1 (configuration not stated) | -42.3
N#CC1=C(N)NC(SCc2ccc(Cl)cc2)=C(C#N)C12CCCCC2 | 44.1
CCc1nnc(NC(=O)c2c(O)c3c([nH]c2=O)CCCC3)s1 | -91.6
COc1ccc2[nH]c(C)c(C(=O)CN3CCN(C(=O)c4ccco4)CC3)c2c1 | -4.8
CCCC(=O)Nc1sc2c(c1C#N)CCCC2 | -83.9
CN(C)CC(O)COc1ccc(C(C)(C)c2ccc(OCC(O)CN(C)C)cc2)cc1 (configuration not stated) | -216
CCOc1ccc(-n2c3nc4ccccc4nc3c3c(=O)n(Cc4ccco4)cnc32)cc1 | -105
Cc1c(O)c(CN2CCCC(C)C2)cc2c3c(c(=O)oc12)CCC3 (configuration not stated) | 30.2
Fc1ccc(OCCOCCNCC2CCCO2)cc1 (configuration not stated) | -35.4
CCOC(=O)C1=C(C)N=C2SC(C)C(=O)N2C1c1cccc(F)c1 (configuration not stated) | -10.3
CSc1ccc2c(c1)N(CCC1CCCCN1C)c1ccccc1S2 (configuration not stated) | -54.8
CCCCCC(=O)O[C@]1(C(C)=O)CC[C@H]2[C@@H]3CCC4=CC(=O)CC[C@]4(C)[C@H]3CC[C@@]21C | -58.2
N[C@@H](C(=O)N[C@@H]1C(=O)N2C(C(=O)O)=C(Cl)CS[C@H]12)c1ccccc1 | -84.8
COc1cc(/C=N/O)ccc1OCc1ccc(C(=O)O)cc1 | -51.1
O=C(Nc1ccccn1)NC(C(F)(F)F)C(F)(F)F | -56
O=c1[nH]c(CN2CCCCC2)nc2c1C1(CCCC1)Cc1ccccc1-2 | -29.1
COC(=O)c1n[nH]c2ccccc12 | -157
CC(=O)C1=C(O)C(=O)N(Cc2cccnc2)C1c1ccccc1Cl (configuration not stated) | -41.7
CC1CCCCN1C(=O)C12CCC(C)(/C(=N/O)C1)C2(C)C (configuration not stated) | -75.4

Data provenance: PubChem BioAssay
